Below, each of the compounds is paired with its reported % Activity relative to dillapiol = 1 value.
Target: CYP3A4 (BDGentest) (Homo sapiens)
Construct: purchased BDGentest
Sequence (P08684 whole entry): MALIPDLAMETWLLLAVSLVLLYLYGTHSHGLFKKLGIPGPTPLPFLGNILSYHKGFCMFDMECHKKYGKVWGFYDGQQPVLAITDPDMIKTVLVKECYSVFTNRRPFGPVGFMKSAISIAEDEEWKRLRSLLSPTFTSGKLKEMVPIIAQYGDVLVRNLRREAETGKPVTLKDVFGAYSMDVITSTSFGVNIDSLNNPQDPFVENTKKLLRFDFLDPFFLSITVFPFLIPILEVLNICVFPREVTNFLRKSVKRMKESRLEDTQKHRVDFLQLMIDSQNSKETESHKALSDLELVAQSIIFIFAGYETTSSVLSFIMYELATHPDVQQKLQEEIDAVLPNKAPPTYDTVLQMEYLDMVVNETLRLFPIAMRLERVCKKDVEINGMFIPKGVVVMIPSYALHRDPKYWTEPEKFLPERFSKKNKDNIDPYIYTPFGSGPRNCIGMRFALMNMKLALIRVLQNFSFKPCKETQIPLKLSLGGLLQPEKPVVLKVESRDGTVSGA
Experiment: New CYP3A4 bioassay with dibenzylfluorescein (DBF) substrate (Foster et al. 2011)
Format: biochemical
Conditions: new CYP3A4 bioassay; inhibition relative to dillapiol
I'd appreciate a reply containing only the number, no unit.

Prompt line: Kindly state the measured % Activity relative to dillapiol = 1 obtained for `C=CCc1cc2c(cc1OCc1ccccc1)OCO2` with CYP3A4 (BDGentest) (Homo sapiens).
Response line: 6.37

Others:
Prompt line: Quick check: % Activity relative to dillapiol = 1 on CYP3A4 (BDGentest) (Homo sapiens), item O=C(OCCCc1cc2c(cc1OCc1ccccc1)OCO2)C(c1ccccc1)c1ccccc1 [Compound 70] ?
Response line: 4

Prompt line: Field: % Activity relative to dillapiol = 1 (CYP3A4 (BDGentest) (Homo sapiens)). Entry: COc1cc2c(cc1CCCOC(=O)C(c1ccccc1)c1ccccc1)OCO2 [Compound 61]
Response line: 19.5

Prompt line: Provide value of % Activity relative to dillapiol = 1 for this record tested with CYP3A4 (BDGentest) (Homo sapiens): COc1c(CCCOC(=O)C(c2ccccc2)c2ccccc2)cc2c(c1OC)OCO2 [drawing 58]
Response line: 21.15
